# IC50 per entry
- experimental-system: hSMO WT (Homo sapiens)
- Construct: expressed in transfected cells; host or cells: SMO knock-out mouse embryonic fibroblasts (MEF SMO-/-), BacMam transduction
- Sequence (Q99835 28-787): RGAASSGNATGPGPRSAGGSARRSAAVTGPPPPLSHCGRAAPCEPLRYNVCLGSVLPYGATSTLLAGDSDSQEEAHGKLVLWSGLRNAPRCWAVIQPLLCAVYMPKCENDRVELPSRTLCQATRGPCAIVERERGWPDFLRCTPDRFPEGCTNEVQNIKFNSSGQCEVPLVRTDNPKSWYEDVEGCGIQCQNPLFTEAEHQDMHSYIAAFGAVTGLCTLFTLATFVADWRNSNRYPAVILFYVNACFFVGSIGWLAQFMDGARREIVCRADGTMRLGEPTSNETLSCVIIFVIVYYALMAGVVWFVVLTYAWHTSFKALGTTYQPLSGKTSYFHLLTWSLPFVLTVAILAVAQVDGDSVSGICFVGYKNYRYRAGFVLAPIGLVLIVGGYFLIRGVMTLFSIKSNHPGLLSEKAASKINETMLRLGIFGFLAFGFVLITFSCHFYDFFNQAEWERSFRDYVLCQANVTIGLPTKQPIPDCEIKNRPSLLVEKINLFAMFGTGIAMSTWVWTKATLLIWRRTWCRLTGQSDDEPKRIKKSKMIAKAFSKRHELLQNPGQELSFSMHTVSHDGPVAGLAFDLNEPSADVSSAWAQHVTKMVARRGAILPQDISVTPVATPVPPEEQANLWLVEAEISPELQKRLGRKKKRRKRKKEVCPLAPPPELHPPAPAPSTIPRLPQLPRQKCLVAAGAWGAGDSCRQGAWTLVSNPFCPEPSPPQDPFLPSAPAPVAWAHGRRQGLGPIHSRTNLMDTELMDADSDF
- assay-summary: Human assay: Gli1 qPCR in MEF SMO-/- cells BacMam-transduced with hSMO WT
- Format: cell-based
- protocol-conditions: mSHh-treated, 24 hours, Gli1 inhibition by qPCR, read-out: Human WT pIC50 (converted)
metric-name: IC50 (nM)

[[record]]
compound_structure = "O=C(Nc1ccc(-c2nc(C3CCCC3)n[nH]2)cc1)c1cccc(CN2CCS(=O)(=O)CC2)c1"
metric_name = "IC50"
measured = 2

[[record]]
compound_structure = "Cc1c(-c2ccc(NC(=O)c3ccc(Cl)c(CN4CCS(=O)(=O)CC4)c3)cc2)nn(C)c1C1CC1"
metric_name = "IC50"
measured = 0.794

[[record]]
compound_structure = "Cc1c(-c2ccc(NC(=O)c3ccc(Cl)c(CN4CCS(=O)(=O)CC4)c3)cc2)n[nH]c1C1CC1"
metric_name = "IC50"
measured = 1.26

[[record]]
compound_structure = "O=C(Nc1ccc(-c2nc(C3CC3)n[nH]2)cc1)c1cccc(CN2CCS(=O)(=O)CC2)c1"
metric_name = "IC50"
measured = 31.6


###

# IC50 per entry
- experimental-system: mouse SMO^W535L (Mus musculus, UniProt P56726, W539L)
- Construct: expressed in transfected cells
- Sequence (P56726 33-793 W539L): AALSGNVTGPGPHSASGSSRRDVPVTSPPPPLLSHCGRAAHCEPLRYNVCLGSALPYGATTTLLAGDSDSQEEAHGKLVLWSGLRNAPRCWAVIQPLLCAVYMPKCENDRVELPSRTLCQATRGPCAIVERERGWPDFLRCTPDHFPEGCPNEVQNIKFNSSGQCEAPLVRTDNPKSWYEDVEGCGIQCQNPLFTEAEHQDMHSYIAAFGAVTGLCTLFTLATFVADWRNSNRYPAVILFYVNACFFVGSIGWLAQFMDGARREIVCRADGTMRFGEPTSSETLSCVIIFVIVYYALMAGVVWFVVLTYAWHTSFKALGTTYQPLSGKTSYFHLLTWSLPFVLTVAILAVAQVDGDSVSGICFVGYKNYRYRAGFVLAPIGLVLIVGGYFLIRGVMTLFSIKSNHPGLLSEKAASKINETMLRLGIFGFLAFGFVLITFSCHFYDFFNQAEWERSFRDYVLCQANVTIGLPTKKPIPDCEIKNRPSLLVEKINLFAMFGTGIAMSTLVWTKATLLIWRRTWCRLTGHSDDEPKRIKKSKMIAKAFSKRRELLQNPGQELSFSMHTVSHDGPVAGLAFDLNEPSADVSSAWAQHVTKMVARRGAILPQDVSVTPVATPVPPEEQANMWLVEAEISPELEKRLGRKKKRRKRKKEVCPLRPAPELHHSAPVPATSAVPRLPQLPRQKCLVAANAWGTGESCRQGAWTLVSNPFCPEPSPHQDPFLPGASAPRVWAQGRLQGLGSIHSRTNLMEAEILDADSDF
- assay-summary: Mouse assay: Gli1 qPCR in MEF cells stably expressing mouse SMO W535L
- Format: cell-based
- protocol-conditions: mSHh-treated, 24 hours, Gli1 inhibition by qPCR, read-out: Mouse W535L pIC50 (converted)
metric-name: IC50 (nM)

[[record]]
compound_structure = "O=C(Nc1ccc(-c2nc(Cc3cc4c(cc3Cl)OCO4)n[nH]2)cc1)c1cccc(CN2CCS(=O)(=O)CC2)c1"
metric_name = "IC50"
unit_string = "nM"
measured = 126

[[record]]
compound_structure = "Cn1nc(-c2ccc(NC(=O)c3ccc(Cl)c(CN4CCS(=O)(=O)CC4)c3)cc2)cc1C1CC1"
metric_name = "IC50"
unit_string = "nM"
measured = 10

[[record]]
compound_structure = "O=C(Nc1ccc(-c2nc(C3CC3)n[nH]2)cc1)c1cc(Cl)cc(CN2CCS(=O)(=O)CC2)c1"
metric_name = "IC50"
unit_string = "nM"
measured = 39.8

[[record]]
compound_structure = "Cl.O=C(Nc1ccc(-c2nc(C3CCC3)n[nH]2)cc1)c1cccc(CN2CCS(=O)(=O)CC2)c1"
metric_name = "IC50"
unit_string = "nM"
measured = 200

[[record]]
compound_structure = "COc1ccc(-c2n[nH]c(-c3ccc(NC(=O)c4cccc(CN5CCS(=O)(=O)CC5)c4)cc3)n2)cc1"
metric_name = "IC50"
unit_string = "nM"
measured = 316

[[record]]
compound_structure = "Cc1oc(-c2ccc(NC(=O)c3ccc(Cl)c(CN4CCS(=O)(=O)CC4)c3)cc2)nc1C1CC1"
metric_name = "IC50"
unit_string = "nM"
measured = 12.6

[[record]]
compound_structure = "O=C(Nc1ccc(-c2noc(C3CCCC3)n2)cc1)c1cccc(CN2CCS(=O)(=O)CC2)c1"
metric_name = "IC50"
unit_string = "nM"
measured = 794

[[record]]
compound_structure = "O=C(Nc1ccc(-c2nc(-c3ccc(C(F)(F)F)s3)n[nH]2)cc1)c1cccc(CN2CCS(=O)(=O)CC2)c1"
metric_name = "IC50"
unit_string = "nM"
measured = 794

[[record]]
compound_structure = "Cc1c(-c2ccc(NC(=O)c3cccc(CN4CCS(=O)(=O)CC4)c3)cc2)nn(C)c1C1CC1"
metric_name = "IC50"
unit_string = "nM"
measured = 15.8

[[record]]
compound_structure = "Cc1c(-c2ccc(NC(=O)c3ccc(Cl)c(CN4CCS(=O)(=O)CC4)c3)cc2)nn(C)c1C1CC1"
metric_name = "IC50"
unit_string = "nM"
measured = 5.01

[[record]]
compound_structure = "Cc1oc(-c2ccc(NC(=O)c3ccc(F)c(CN4CCS(=O)(=O)CC4)c3)cc2)nc1C1CC1"
metric_name = "IC50"
unit_string = "nM"
measured = 10

[[record]]
compound_structure = "Cc1ccc(Cc2n[nH]c(-c3ccc(NC(=O)c4cccc(CN5CCS(=O)(=O)CC5)c4)cc3)n2)cc1"
metric_name = "IC50"
unit_string = "nM"
measured = 25.1

[[record]]
compound_structure = "Cc1ccc(Cc2nc(-c3ccc(NC(=O)c4cccc(CN5CCS(=O)(=O)CC5)c4)cc3)no2)cc1"
metric_name = "IC50"
unit_string = "nM"
measured = 20

[[record]]
compound_structure = "O=C(Nc1ccc(-c2noc(Cc3ccc(F)cc3)n2)cc1)c1cccc(CN2CCS(=O)(=O)CC2)c1"
metric_name = "IC50"
unit_string = "nM"
measured = 6.31

[[record]]
compound_structure = "O=C(Nc1ccc(-c2noc(Cc3ccc(Cl)cc3)n2)cc1)c1cccc(CN2CCS(=O)(=O)CC2)c1"
metric_name = "IC50"
unit_string = "nM"
measured = 39.8

[[record]]
compound_structure = "O=C(Nc1ccc(-c2nc(-c3ccc(COc4ccccc4F)cc3)n[nH]2)cc1)c1cccc(CN2CCS(=O)(=O)CC2)c1"
metric_name = "IC50"
unit_string = "nM"
measured = 631

[[record]]
compound_structure = "O=C(Nc1ccc(-c2nc(CCc3ccccc3)n[nH]2)cc1)c1cccc(CN2CCS(=O)(=O)CC2)c1"
metric_name = "IC50"
unit_string = "nM"
measured = 79.4

[[record]]
compound_structure = "O=C(Nc1ccc(-c2nc(C3CC3)n[nH]2)cc1)c1ccc(Cl)c(CN2CCS(=O)(=O)CC2)c1"
metric_name = "IC50"
unit_string = "nM"
measured = 100

[[record]]
compound_structure = "Cc1oc(-c2ccc(NC(=O)c3ccc(Cl)c(CN4CCS(=O)(=O)CC4)c3)cn2)nc1C1CC1"
metric_name = "IC50"
unit_string = "nM"
measured = 63.1

[[record]]
compound_structure = "O=C(Nc1ccc(-c2nc(Cc3ccc4c(c3)OCCO4)n[nH]2)cc1)c1cccc(CN2CCS(=O)(=O)CC2)c1"
metric_name = "IC50"
unit_string = "nM"
measured = 316

[[record]]
compound_structure = "O=C(Nc1ccc(-c2cc(Cc3ccccc3)n[nH]2)cc1)c1cccc(CN2CCS(=O)(=O)CC2)c1"
metric_name = "IC50"
unit_string = "nM"
measured = 39.8

[[record]]
compound_structure = "O=C(Nc1ccc(-c2nc(Cc3cc(Cl)ccc3Cl)n[nH]2)cc1)c1cccc(CN2CCS(=O)(=O)CC2)c1"
metric_name = "IC50"
unit_string = "nM"
measured = 251

[[record]]
compound_structure = "Cc1nc(-c2ccc(NC(=O)c3cccc(CN4CCS(=O)(=O)CC4)c3)cc2)oc1C"
metric_name = "IC50"
unit_string = "nM"
measured = 63.1

[[record]]
compound_structure = "Cc1ccc(Cc2n[nH]c(-c3ccc(NC(=O)c4cccc(CN5CCS(=O)(=O)CC5)c4)cc3)n2)cc1C"
metric_name = "IC50"
unit_string = "nM"
measured = 39.8


###

# Mouse WT % Inh per entry
- experimental-system: mouse SMO^WT (Mus musculus)
- Construct: expressed in transfected cells
- Sequence (P56726 33-793): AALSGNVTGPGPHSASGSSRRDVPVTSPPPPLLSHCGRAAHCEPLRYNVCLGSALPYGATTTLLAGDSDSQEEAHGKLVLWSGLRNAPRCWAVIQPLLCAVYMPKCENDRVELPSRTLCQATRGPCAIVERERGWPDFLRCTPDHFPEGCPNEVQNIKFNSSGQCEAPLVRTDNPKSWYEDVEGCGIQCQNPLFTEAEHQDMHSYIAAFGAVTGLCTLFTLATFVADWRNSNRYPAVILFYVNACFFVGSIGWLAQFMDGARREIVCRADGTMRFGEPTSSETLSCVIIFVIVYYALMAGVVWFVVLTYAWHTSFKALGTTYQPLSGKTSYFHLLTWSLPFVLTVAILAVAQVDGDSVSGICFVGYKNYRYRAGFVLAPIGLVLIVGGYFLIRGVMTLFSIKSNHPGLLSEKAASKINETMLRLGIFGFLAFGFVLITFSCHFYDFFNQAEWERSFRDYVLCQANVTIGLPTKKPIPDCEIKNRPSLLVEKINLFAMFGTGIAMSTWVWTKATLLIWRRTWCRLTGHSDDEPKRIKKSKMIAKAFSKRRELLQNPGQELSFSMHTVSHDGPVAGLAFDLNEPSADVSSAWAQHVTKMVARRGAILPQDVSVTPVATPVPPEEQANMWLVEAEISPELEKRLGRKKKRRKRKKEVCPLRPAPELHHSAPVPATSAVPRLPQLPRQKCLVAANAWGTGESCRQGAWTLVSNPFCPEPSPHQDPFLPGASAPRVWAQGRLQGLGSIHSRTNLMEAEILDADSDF
- assay-summary: Mouse assay: Gli1 qPCR in MEF cells stably expressing mouse SMO WT; also: test concentration or dose not given here
- Type: cell-based
- protocol-conditions: mSHh-treated, 24 hours, percentage Gli1 inhibition
- Procedure: Cell culture. All materials were purchased from Sigma-Aldrich, unless otherwise stated. Compound treatment. […] Cell lysis and one-step qPCR. […] Real-time PCR amplification was detected using the Bio-Rad CFX384 Touch PCR system. […] Real-time data were analysed using the CFX Maestro software (Bio-Rad) and obtained expression values were converted to percentage Gli1 inhibition by normalising to the average Gli1 expression of mSHh-treated control samples.
metric-name: Mouse WT % Inh (%)

[[record]]
compound = "O=C(Nc1ccc(-c2nc(C3CC3)n[nH]2)cc1)c1cccc(CN2CCSCC2)c1"
unit_string = "%"
measured = 99.4

[[record]]
compound = "Cc1ccc(Cc2nc(-c3ccc(NC(=O)c4cccc(CN5CCS(=O)(=O)CC5)c4)cc3)no2)cc1"
unit_string = "%"
measured = 97.5

[[record]]
compound = "Cl.Cn1nc(-c2ccc(NC(=O)c3cccc(CN4CCS(=O)(=O)CC4)c3)cc2)nc1C1CC1"
unit_string = "%"
measured = 99.5

[[record]]
compound = "O=C(Nc1ccc(-c2nc(C3CCCN(Cc4ccccc4)C3)n[nH]2)cc1)c1cccc(CN2CCS(=O)(=O)CC2)c1 (stereo not drawn)"
unit_string = "%"
measured = 95.1

[[record]]
compound = "COc1cccc(Cc2n[nH]c(-c3ccc(NC(=O)c4cccc(CN5CCS(=O)(=O)CC5)c4)cc3)n2)c1"
unit_string = "%"
measured = 98.5

[[record]]
compound = "O=C(Nc1ccc(-c2nc(-c3cccc(F)c3)n[nH]2)cc1)c1cccc(CN2CCS(=O)(=O)CC2)c1"
unit_string = "%"
measured = 99.1

[[record]]
compound = "O=C(Nc1ccc(-c2nc(C3CC3)n[nH]2)cc1)c1cc(CN2CCS(=O)(=O)CC2)ccc1F"
unit_string = "%"
measured = 96.5

[[record]]
compound = "Cc1oc(-c2ccc(NC(=O)c3ccc(Cl)c(CN4CCS(=O)(=O)CC4)c3)cn2)nc1C1CC1"
unit_string = "%"
measured = 98.8

[[record]]
compound = "CN(C)c1nnc(-c2ccc(NC(=O)c3cccc(CN4CCS(=O)(=O)CC4)c3)cc2)o1"
unit_string = "%"
measured = 99.6

[[record]]
compound = "Cc1nc(-c2ccc(NC(=O)c3cccc(CN4CCS(=O)(=O)CC4)c3)cc2)oc1C"
unit_string = "%"
measured = 99.2

[[record]]
compound = "O=C(Nc1ccc(-c2noc(C3CCCC3)n2)cc1)c1cccc(CN2CCS(=O)(=O)CC2)c1"
unit_string = "%"
measured = 98.2

[[record]]
compound = "O=C(Nc1ccc(-c2nc(C3CC3)n[nH]2)cc1)c1ccc(F)c(CN2CCS(=O)(=O)CC2)c1"
unit_string = "%"
measured = 94.4

[[record]]
compound = "O=C(Nc1ccc(-c2noc(Cc3ccccc3)n2)cc1)c1cccc(CN2CCS(=O)(=O)CC2)c1"
unit_string = "%"
measured = 99.0

[[record]]
compound = "Cn1nc(-c2ccc(NC(=O)c3ccc(Cl)c(CN4CCS(=O)(=O)CC4)c3)cc2)cc1C1CC1"
unit_string = "%"
measured = 97.9

[[record]]
compound = "O=C(Nc1ccc(-c2nc(Cc3ccc(Br)cc3)n[nH]2)cc1)c1cccc(CN2CCS(=O)(=O)CC2)c1"
unit_string = "%"
measured = 98.8

